Numbers sourced from patent US20250027068.

Entries annotated with measured Enzyme Activity Endpoint Assay (purified): Fab′2
- study_target: pooled human IgG (human IgG1, 2, 3 and 4)

Worked cases, Enzyme Activity Endpoint Assay (purified): Fab′2 given:
protein	result
PRT-564 (protein) MANQEIRYSEATPSHITSVWTKGVTPPTQFIQNEDVLHAPYIANQGWYDITKTFNGKDDLLCGAATAGNMLHWWFDQNKTQIENYLKKHPEKQKINFNGEQMFDVKEAIDTKDSQTDSALFSYFKDKAFPYLSTKHLGVFPDHVIDMFINGYRLSLTNHGPTPVKRQTKDPRGGIFDAVFTRGDQSKLLTSRHDFKEKTLNEISQLIKQELTEGKALGLSHTYANVRINHVINLWGADFNAEGNLEAIYVTDSDSNASIGMKKYYVGVNAAGKVAISAKEIEGDNIGAQVLGLFTLSTGQDIWQQTNLEHHHHHH	651 ng/µL
PRT-609 (protein) MQITSVWTKGVTPLTPEQFRYNNEDVIHAPYLAHQGWYDITKAFDRGDNLLCGAATAGNMLHWWFDQNKTEIEAYLSKHPEKQKIIFNNQELFDLKAAIDTKDSQTNSQLFNYFRDKAFPNLSARQGGVMPDLVLDMFINGYYLNVFKTQSTDVNRPYQDKDKRGGIFDAVFTRGDQTTLLTARHDLKNKGLNDISTIIKQELTEGRALALSHTYANVSISHVINLWGADFNAEGNLEAIYVTDSDADEKIGMKKYFVGINAHGHVAISAKKIEGENIGAQVLGLFTLSSGKDIWQKLSLEHHHHHH	460 ng/µL
PRT-641 (protein) MQITSVWTKGVTPLTPEQFRYNNEDVIHAPYLAHQGWYDITKTMNGKDDLLCGAATAGNMLHWWFDQNKTEIEAYLSKHPEKQKIIFNNQELFDLKAAIDTKDSQTNSQLFNYFRDKAFPNLSARQRGVMPDLVLDMFINGYYLNVFKTQSTDVNRPYQDKDKRGGIFDAVFTRGDQTTLLTARHDLKNKGLNDISTIIKQELTEGRALALSHTYANVSISHVINLWGADFNAEGNLEAIYVTDSDARENIGMKKYFVGINAHGHVAISAKKIEGENIGAQVLGLFTLSSGKDIWQKLSLEHHHHHH	975 ng/µL

Input line: GET /values?readout=Enzyme Activity Endpoint Assay (purified): Fab′2&item= PRT-439 (protein) MSQTEDSESLQRLRDIEDFQAEKKKQNVVYTKWLDGVDVKDHDFRKIVDGNIAYYATPLLNGRGFYDINKDFNRDSDKCAAAVAANMFHYWLDRNRDNVDRFLRQNPEKHGIIELPDGQLKLSDFLNTYESDDGYRDKSKLFDFISNNFNGPVWTDKLLDNYINGYAYNYKYGRLIEDPTKNTSKINFFKEVFNEKILTNNHSIRNQNEFSVLLSEALYTGKAIGLSYGPAGLRHSLGHIISVWGADLDADGNVVAIYVTDSDDKKLTIGDERVGLKRYKISTDDEGRLRLTAYEETHNTGGQIRGLWTLDTGKQAWADYFDKTEQTGTDQAEQ
Output line: 179 ng/µL
